- tgt: Cannabinoid receptor 1 (Homo sapiens)
- Sequence (P21554 whole entry): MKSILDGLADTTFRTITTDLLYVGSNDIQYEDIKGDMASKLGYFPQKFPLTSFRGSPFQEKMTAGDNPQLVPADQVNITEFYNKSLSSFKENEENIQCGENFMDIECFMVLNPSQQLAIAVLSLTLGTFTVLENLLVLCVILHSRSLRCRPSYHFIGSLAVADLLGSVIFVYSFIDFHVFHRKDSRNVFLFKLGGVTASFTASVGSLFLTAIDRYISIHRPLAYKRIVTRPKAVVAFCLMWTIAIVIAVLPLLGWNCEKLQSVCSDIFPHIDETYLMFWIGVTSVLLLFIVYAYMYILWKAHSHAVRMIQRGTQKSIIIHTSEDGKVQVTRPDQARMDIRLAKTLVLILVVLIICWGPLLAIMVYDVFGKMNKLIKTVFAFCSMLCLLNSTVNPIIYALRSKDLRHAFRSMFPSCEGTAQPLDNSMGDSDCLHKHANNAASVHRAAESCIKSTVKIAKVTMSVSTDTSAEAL
- assayMethodText: Displacement of [3H]CP55940 from human CB1 receptor expressed in HEK293 EBNA cell membranes after 90 mins by liquid scintillation and luminescence counting method
- settings: read-out: Ki
valueType: Ki

Q: What measured Ki goes with Cc1cc(-c2cc(C(=O)NC3CCCCCC3)c(=O)n(Cc3ccc(F)cc3)n2)ccc1Cl ?
A: > 4 µM

====

Ratio Ki values for the compounds below.
- Organism: Homo sapiens
- assayMethodText: Selectivity ratio of Ki for human CB1 receptor to Ki for human CB2 receptor

Cc1cc(-c2cc(C(=O)N[C@H]3CC[C@@H](C)CC3)c(=O)n(Cc3ccc(F)cc3)n2)ccc1Cl > 2000
Cc1cc(-c2cc(C(=O)NC3CCCCCC3)c(=O)n(Cc3ccc(F)cc3)n2)ccc1Cl > 816
Cc1ccc(Cn2nc(-c3ccc(Cl)c(C)c3)cc(C(=O)NC3CCCCC3)c2=O)cc1 > 16.6

Q: What measured Ratio Ki goes with O=C(NC1CCCCC1)c1cc(-c2ccccc2)nn(Cc2ccc(F)cc2)c1=O ?
A: 11

Q: Entry to check: Cc1cc(-c2cc(C(=O)NC3CCCCC3)c(=O)n(Cc3ccc(F)cc3)n2)ccc1Cl
A: > 851

====

- tgt: Cannabinoid receptor 2 (Homo sapiens, UniProt P34972)
- Sequence (P34972 whole entry): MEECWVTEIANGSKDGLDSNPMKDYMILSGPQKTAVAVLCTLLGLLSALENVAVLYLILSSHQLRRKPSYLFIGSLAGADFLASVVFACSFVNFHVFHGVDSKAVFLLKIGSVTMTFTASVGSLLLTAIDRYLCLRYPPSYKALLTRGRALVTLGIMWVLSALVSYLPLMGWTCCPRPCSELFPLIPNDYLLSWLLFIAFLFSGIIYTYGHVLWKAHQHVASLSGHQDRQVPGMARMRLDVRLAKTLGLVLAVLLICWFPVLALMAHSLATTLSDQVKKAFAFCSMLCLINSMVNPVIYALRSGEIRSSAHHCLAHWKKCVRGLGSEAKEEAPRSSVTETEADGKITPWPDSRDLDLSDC
- assayMethodText: Inverse agonist activity at human CB2 receptor expressed in HEK293 EBNA cell membranes after 30 mins by [35S]-GTPgammaS binding assay
- Format: functional
Emax values for the compounds below.
State the answer as a number, implicitly in %.

Cc1cc(-c2cc(C(=O)NC3CCCCC3)c(=O)n(Cc3ccc(F)cc3)n2)ccc1Cl -60.7
C[C@H]1CC[C@@H](NC(=O)c2cc(-c3ccccc3)nn(Cc3ccc(F)cc3)c2=O)CC1 -65.7

Q: What measured Emax goes with Cc1cc(-c2cc(C(=O)N[C@@H]3C(C)(C)[C@@H]4CC[C@@]3(C)C4)c(=O)n(Cc3ccc(F)cc3)n2)ccc1Cl ?
A: -58.7

Q: Entry to check: Cc1ccc(Cn2nc(C(=O)N[C@@H]3C(C)(C)[C@@H]4CC[C@@]3(C)C4)cc2-c2ccc(Cl)c(C)c2)cc1
A: -63.2

Q: Entry to check: Cc1cc(-c2cc(C(=O)N[C@H]3CC[C@@H](C)CC3)c(=O)n(Cc3ccc(F)cc3)n2)ccc1Cl
A: -43.8

====

- Species: Homo sapiens
- assayMethodText: Selectivity ratio of Ki for human CB1 receptor to Ki for human CB2 receptor
valueType: Ratio Ki
The answer should be a number; do not append a unit.

C[C@H]1CC[C@H](NC(=O)c2cc(-c3ccccc3)nn(Cc3ccc(F)cc3)c2=O)CC1 5

Q: What measured Ratio Ki goes with O=C(NC1CCCCCC1)c1cc(-c2ccccc2)nn(Cc2ccc(F)cc2)c1=O ?
A: 2

Q: Entry to check: C[C@H]1CC[C@@H](NC(=O)c2cc(-c3ccccc3)nn(Cc3ccc(F)cc3)c2=O)CC1
A: 20

====

- tgt: Cannabinoid receptor 2 (Homo sapiens, UniProt P34972)
- assayMethodText: Displacement of [3H]CP55940 from human CB2 receptor expressed in HEK293 EBNA cell membranes after 90 mins by liquid scintillation and luminescence counting method
- settings: read-out: Ki
valueType: log10 Ki (log10 of the value in nM)
A value of 2 here means Ki of 100 in nM, since values are log10.

Solved entries (count: 5):
Cc1cc(-c2cc(C(=O)NCCN3CCOCC3)c(=O)n(Cc3ccc(F)cc3)n2)ccc1Cl 2.49
Cc1cc(-c2cc(C(=O)N[C@@H]3C(C)(C)[C@@H]4CC[C@@]3(C)C4)c(=O)n(Cc3ccc(F)cc3)n2)ccc1Cl 0.41
O=C(NC1CCCCC1)c1cc(-c2ccccc2)nn(Cc2ccc(F)cc2)c1=O 1.64
Cc1cc(-c2cc(C(=O)N[C@H]3CC[C@H](C)CC3)c(=O)n(Cc3ccc(F)cc3)n2)ccc1Cl 0.95
Cc1cc(-c2cc(C(=O)NC34CC5CC(CC(C5)C3)C4)c(=O)n(Cc3ccc(F)cc3)n2)ccc1Cl 0.53

Q: What measured log10 Ki goes with C[C@H]1CC[C@@H](NC(=O)c2cc(-c3ccccc3)nn(Cc3ccc(F)cc3)c2=O)CC1 ?
A: 0.76

Q: Entry to check: C[C@H]1CC[C@H](NC(=O)c2cc(-c3ccccc3)nn(Cc3ccc(F)cc3)c2=O)CC1
A: 1.82

Q: Entry to check: Cc1cc(-c2cc(C(=O)NC3CCCCC3)c(=O)n(Cc3ccc(F)cc3)n2)ccc1Cl
A: 0.67

Q: Entry to check: Cc1cc(-c2cc(C(=O)N[C@H]3CC[C@@H](C)CC3)c(=O)n(Cc3ccc(F)cc3)n2)ccc1Cl
A: 0.30

Q: Entry to check: O=C(NC1CCCCCC1)c1cc(-c2ccccc2)nn(Cc2ccc(F)cc2)c1=O
A: 1.20

Q: Entry to check: Cc1cc(-c2cc(C(=O)NC3CCCCCC3)c(=O)n(Cc3ccc(F)cc3)n2)ccc1Cl
A: 0.69

Q: Entry to check: Cc1ccc(Cn2nc(-c3ccc(Cl)c(C)c3)cc(C(=O)NC3CCCCC3)c2=O)cc1
A: 2.38
